# target.of.assay: Urotensin-2 receptor (Homo sapiens, UniProt Q9UKP6)
# Sequence (Q9UKP6 whole entry): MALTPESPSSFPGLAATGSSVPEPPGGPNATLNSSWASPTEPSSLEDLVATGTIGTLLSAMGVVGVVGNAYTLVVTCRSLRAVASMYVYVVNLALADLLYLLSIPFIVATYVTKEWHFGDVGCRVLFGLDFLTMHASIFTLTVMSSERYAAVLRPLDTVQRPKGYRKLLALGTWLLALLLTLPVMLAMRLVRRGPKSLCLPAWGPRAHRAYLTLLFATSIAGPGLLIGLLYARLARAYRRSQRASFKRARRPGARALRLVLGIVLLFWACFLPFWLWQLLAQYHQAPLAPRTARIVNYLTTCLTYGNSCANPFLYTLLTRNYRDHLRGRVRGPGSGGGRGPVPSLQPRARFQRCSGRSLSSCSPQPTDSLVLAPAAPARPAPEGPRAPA
# measurement.description: Displacement of [125I]urotensin 2 from human UT receptor expressed in CHO-K1 cells
# Format: cell-based
metric.name: Ki

Reported Ki for `CC(C)[C@H](NC(=O)[C@@H]1CSSC(C)(C)[C@H](NC(=O)[C@@H](N)CC(=O)O)C(=O)N[C@@H](Cc2ccccc2)C(=O)N[C@H](Cc2c[nH]c3ccccc23)C(=O)N[C@@H](CCCN)C(=O)N[C@@H](Cc2ccc(O)cc2)C(=O)N1)C(=O)O` : what is it? 2000 nM (antagonist)

Reported Ki for `CC(C)[C@H](NC(=O)[C@@H]1CSSC(C)(C)[C@H](NC(=O)[C@@H](N)CC(=O)O)C(=O)N[C@@H](Cc2ccccc2)C(=O)N[C@@H](Cc2c[nH]c3ccccc23)C(=O)N[C@@H](CCCN)C(=O)N[C@@H](Cc2ccc(O)cc2)C(=O)N1)C(=O)O` : what is it? 15.8 nM (antagonist)

Reported Ki for `CC(C)[C@H](NC(=O)[C@@H]1CSSC[C@H](NC(=O)[C@@H](N)CC(=O)O)C(=O)N[C@@H](Cc2ccccc2)C(=O)N[C@H](Cc2c[nH]c3ccccc23)C(=O)N[C@@H](CCCN)C(=O)N[C@@H](Cc2ccc(O)cc2)C(=O)N1)C(=O)O` : what is it? 12.6 nM (antagonist)

Reported Ki for `CC(C)[C@H](NC(=O)[C@@H]1CSSC[C@H](NC(=O)[C@@H](N)CC(=O)O)C(=O)N[C@@H](Cc2ccccc2)C(=O)N[C@H](Cc2c[nH]c3ccccc23)C(=O)N[C@@H](CCCCN)C(=O)N[C@@H](Cc2ccc(O)cc2)C(=O)N1)C(=O)O` : what is it? 1.26 nM (antagonist)
